Measured minimum inhibitory concentration (MIC) by item
Test system: Candida albicans IAM 4888
Assay: MIC, two-fold agar dilution method
Type: cell-based
Details: Sabouraud agar
Description: The minimum inhibitory concentrations (MIC) of the semibiosynthetic tallysomycin derivatives of the present invention were determined against fungi and gram-positive, gram-negative and acid-fast bacteria by the two-fold agar dilution method. Nutrient agar was used for bacteria and Sabouraud agar for fungi. The results are shown in the table below comparatively with tallysomycin A and B.
Lab note: jot down the number only; don't add units.

Take a look at these entries with their results.
Cc1c(N)nc(C(CC(N)=O)NCC(N)C(N)=O)nc1C(=O)NC(C(=O)NC(C)C(O)CC(=O)NC(C(=O)NC(OC1OC(C)C(N)C(O)C1O)C(O)c1nc(-c2nc(C(=O)NCCCC(N)CC(=O)NCCCNC(C)c3ccccc3)cs2)cs1)C(C)O)C(OC1OC(CO)C(O)C(O)C1OC1OC(CO)C(O)C(OC(N)=O)C1O)c1c[nH]cn1 (stereo not shown) [Tallysomycin S14a]    50
Cc1c(N)nc(C(CC(N)=O)NCC(N)C(N)=O)nc1C(=O)NC(C(=O)NC(C)C(O)CC(=O)NC(C(=O)NC(OC1OC(C)C(N)C(O)C1O)C(O)c1nc(-c2nc(C(=O)NCCNCC(C)O)cs2)cs1)C(C)O)C(OC1OC(CO)C(O)C(O)C1OC1OC(CO)C(O)C(OC(N)=O)C1O)c1c[nH]cn1 (stereo not shown)    25

Need minimum inhibitory concentration (MIC), item Cc1c(N)nc(C(CC(N)=O)NCC(N)C(N)=O)nc1C(=O)NC(C(=O)NC(C)C(O)CC(=O)NC(C(=O)NC(OC1OC(C)C(N)C(O)C1O)C(O)c1nc(-c2nc(C(=O)NCCNCCO)cs2)cs1)C(C)O)C(OC1OC(CO)C(O)C(O)C1OC1OC(CO)C(O)C(OC(N)=O)C1O)c1c[nH]cn1 (stereo not shown)
25

Request: CNCCCNC(=O)c1csc(-c2csc(C(O)C(NC(=O)C(NC(=O)CC(O)C(C)NC(=O)C(NC(=O)c3nc(C(CC(N)=O)NCC(N)C(N)=O)nc(N)c3C)C(OC3OC(CO)C(O)C(O)C3OC3OC(CO)C(O)C(OC(N)=O)C3O)c3c[nH]cn3)C(C)O)OC3OC(C)C(N)C(O)C3O)n2)n1 (stereo not shown) [Tallysomycin S11b]
12.5

Entry to check: Cc1c(N)nc(C(CC(N)=O)NCC(N)C(N)=O)nc1C(=O)NC(C(=O)NC(C)C(O)CC(=O)NC(C(=O)NC(OC1OC(C)C(N)C(O)C1O)C(O)c1nc(-c2nc(C(=O)NCCCC(N)CC(=O)NCCCNCCO)cs2)cs1)C(C)O)C(OC1OC(CO)C(O)C(O)C1OC1OC(CO)C(O)C(OC(N)=O)C1O)c1c[nH]cn1 (stereo not shown)
6.3

====

system: Bacillus subtilis PCI 219; experiment: MIC, two-fold agar dilution method; assay type: cell-based; settings: nutrient agar
ENDPOINT_LABEL: minimum inhibitory concentration (MIC)
Please reply with the number alone, leaving off any unit.

Cc1c(N)nc(C(CC(N)=O)NCC(N)C(N)=O)nc1C(=O)NC(C(=O)NC(C)C(O)CC(=O)NC(C(=O)NC(OC1OC(C)C(N)C(O)C1O)C(O)c1nc(-c2nc(C(=O)NCCCN3CCOCC3)cs2)cs1)C(C)O)C(OC1OC(CO)C(O)C(O)C1OC1OC(CO)C(O)C(OC(N)=O)C1O)c1c[nH]cn1 (stereo not drawn) [Tallysomycin S12b]    0.4
Cc1c(N)nc(C(CC(N)=O)NCC(N)C(N)=O)nc1C(=O)NC(C(=O)NC(C)C(O)CC(=O)NC(C(=O)NC(OC1OC(C)C(N)C(O)C1O)C(O)c1nc(-c2nc(C(=O)NCCNCCO)cs2)cs1)C(C)O)C(OC1OC(CO)C(O)C(O)C1OC1OC(CO)C(O)C(OC(N)=O)C1O)c1c[nH]cn1 (stereo not drawn)    0.013

Lab note: need minimum inhibitory concentration (MIC) for Cc1c(N)nc(C(CC(N)=O)NCC(N)C(N)=O)nc1C(=O)NC(C(=O)NC(C)C(O)CC(=O)NC(C(=O)NC(OC1OC(C)C(N)C(O)C1O)C(O)c1nc(-c2nc(C(=O)NCCN)cs2)cs1)C(C)O)C(OC1OC(CO)C(O)C(O)C1OC1OC(CO)C(O)C(OC(N)=O)C1O)c1c[nH]cn1 (stereo not drawn) on Bacillus subtilis PCI 219, anyone have it?
0.013

====

test: Acute toxicity, single dose LD50; assay type: in vivo, dd mice; conditions: ip, 30 days observation, copper-chelated form unless otherwise stated
Entries and their measured LD50 single dose follow.
# number then unit; no other words

Answered cases to consult:
Cc1c(N)nc(C(CC(N)=O)NCC(N)C(N)=O)nc1C(=O)NC(C(=O)NC(C)C(O)CC(=O)NC(C(=O)NC(OC1OC(C)C(N)C(O)C1O)C(O)c1nc(-c2nc(C(=O)NCCCCN)cs2)cs1)C(C)O)C(OC1OC(CO)C(O)C(O)C1OC1OC(CO)C(O)C(OC(N)=O)C1O)c1c[nH]cn1 (stereo not drawn) [Tallysomycin S10b (Cu-free)]    42 mg/kg/day
Cc1c(N)nc(C(CC(N)=O)NCC(N)C(N)=O)nc1C(=O)NC(C(=O)NC(C)C(O)CC(=O)NC(C(=O)NC(OC1OC(C)C(N)C(O)C1O)C(O)c1nc(-c2nc(C(=O)NCCCC(N)CC(=O)NCCCNCCCCN)cs2)cs1)C(C)O)C(OC1OC(CO)C(O)C(O)C1OC1OC(CO)C(O)C(OC(N)=O)C1O)c1c[nH]cn1 (stereo not drawn) [Tallysomycin A (Cu-free), reference compound]    19 mg/kg/day

Returns the measured LD50 single dose for the input compound. Input: Cc1c(N)nc(C(CC(N)=O)NCC(N)C(N)=O)nc1C(=O)NC(C(=O)NC(C)C(O)CC(=O)NC(C(=O)NC(OC1OC(C)C(N)C(O)C1O)C(O)c1nc(-c2nc(C(=O)NCCCN(C)C)cs2)cs1)C(C)O)C(OC1OC(CO)C(O)C(O)C1OC1OC(CO)C(O)C(OC(N)=O)C1O)c1c[nH]cn1 (stereo not drawn)
30 mg/kg/day
